Reference for the values: patent US20260125374A1

# assay.text: Approximate solubility at 25° C. (visual observation)
# Type: physicochemical
# experimental.context: t-butyl methyl ether, organic solvent or mixture, thermodynamic from solid, polymorph screening batch
experimental.endpoint: Solubility

>>> df
                            molecule_smiles  value_measured
0  N#Cc1c(-c2cc(NC(=O)c3cc(F)cc(C(F)(F)F)c3)c3c(c2)C(=O)N[C@H]3c2cc(F)ccc2Cl)ccc2ncnn12    < 5000 µg/mL

* * *

# assay.text: Approximate solubility at 25° C. (visual observation)
# Type: physicochemical
# experimental.context: isopropanol, organic solvent or mixture, thermodynamic from solid, polymorph screening batch
experimental.endpoint: Solubility

>>> print(df.to_string())
                            molecule_smiles  value_measured
0  N#Cc1c(-c2cc(NC(=O)c3cc(F)cc(C(F)(F)F)c3)c3c(c2)C(=O)N[C@H]3c2cc(F)ccc2Cl)ccc2ncnn12    < 5000 µg/mL
